- protocol-notes: Solubility of hydrogen fumarate salt 11 (1000 mg scale-up batch)
- Assay type: physicochemical
- settings: organic solvent or mixture; Acetone, RT
measured-quantity: solubility

(Q) Which solubility value is on record for "CC(C)c1nc(-c2cnc(N)c(OC(F)(F)F)c2)cn1C12CC(N3CCOCC3)(C1)C2.O=C(O)/C=C/C(=O)O" ?
(A) < 10000 µg/mL

====

- protocol-notes: Solubility of hydrogen fumarate salt 11 (1000 mg scale-up batch)
- Format: physicochemical
- settings: organic solvent or mixture; DMSO, 50° C.
measured-quantity: solubility

(Q) # get_value(readout='solubility', item= CC(C)c1nc(-c2cnc(N)c(OC(F)(F)F)c2)cn1C12CC(N3CCOCC3)(C1)C2.O=C(O)/C=C/C(=O)O [Example 11] )
(A) > 100 mg/mL

====

- protocol-notes: Stability (50° C., 40° C./75% RH, light; 1 week)
- Format: physicochemical
- settings: 50° C., bulk, 1 week
measured-quantity: XRPD change?

(Q) Need XRPD change? of CC(C)c1nc(-c2cnc(N)c(OC(F)(F)F)c2)cn1C12CC(N3CCOCC3)(C1)C2 [Example 1] , thanks.
(A) yes

(Q) Can you share its XRPD change?? I mean this compound: CC(C)c1nc(-c2cnc(N)c(OC(F)(F)F)c2)cn1C12CC(N3CCOCC3)(C1)C2.O=C(O)/C=C/C(=O)O [Example 11]
(A) no

(Q) Any idea what XRPD change? was measured for CC(C)c1nc(-c2cnc(N)c(OC(F)(F)F)c2)cn1C12CC(N3CCOCC3)(C1)C2.O=C(O)CCC(=O)O [Example 10] ?
(A) no

(Q) Return reported XRPD change?; argument: CC(C)c1nc(-c2cnc(N)c(OC(F)(F)F)c2)cn1C12CC(N3CCOCC3)(C1)C2.O=C(O)CC(O)(CC(=O)O)C(=O)O [Example 8]
(A) no

New cases:
(Q) Field request: XRPD change? | item: CC(C)c1nc(-c2cnc(N)c(OC(F)(F)F)c2)cn1C12CC(N3CCOCC3)(C1)C2.O=C(O)/C=C\C(=O)O [Example 9]
(A) no

====

- protocol-notes: Solubility of hydrogen fumarate salt 11 (1000 mg scale-up batch)
- Assay type: physicochemical
- settings: organic solvent or mixture; MeOH, RT
measured-quantity: solubility

(Q) GET /values?readout=solubility&item= "CC(C)c1nc(-c2cnc(N)c(OC(F)(F)F)c2)cn1C12CC(N3CCOCC3)(C1)C2.O=C(O)/C=C/C(=O)O"
(A) 25 to 50 mg/mL

====

- protocol-notes: Solubility of the Example 1 compound in organic solvents
- Assay type: physicochemical
- settings: 25 °C, organic solvent or mixture, thermodynamic from solid; EtOH, RT
measured-quantity: solubility at 2 h

(Q) Query (compound): CC(C)c1nc(-c2cnc(N)c(OC(F)(F)F)c2)cn1C12CC(N3CCOCC3)(C1)C2 [Example 1] ; field requested: solubility at 2 h
(A) < 50 mg/mL

====

- protocol-notes: Solubility of the Example 1 compound in organic solvents
- Format: physicochemical
- settings: 25 °C, organic solvent or mixture, thermodynamic from solid; Heptane, RT
- Experimental: Solubility of the Example 1 compound in various organic solvents was determined by the following procedure. […] The mixture was stirred at 800 rpm at 25° C. for 2 hr. If the compound was not dissolved completely by this time, the temperature was then raised to 50° C. and stirring at 800 rpm was continued overnight. […] In either case, the resulting material was evaluated by XRPD.
measured-quantity: solubility at 2 h

(Q) Reported solubility at 2 h for CC(C)c1nc(-c2cnc(N)c(OC(F)(F)F)c2)cn1C12CC(N3CCOCC3)(C1)C2 [Example 1] : what is it?
(A) < 50 mg/mL

Hey, just so you know, these numbers are from patent US20190382396A1.
